Every entry's value here was drawn from patent US8084623B2.

Reported melting point values follow for various molecules

As a guide, the following entries are already answered.
molecule: CC(C)CC1(C(=O)c2cc(F)c(Cl)c(Cl)c2)CCNCC1
melting point: 166 to 167 °C

molecule: O=C(c1ccc2[nH]ncc2c1)C1(CC2CC2)CCCN1 (centres unmarked)
melting point: 291 to 292 °C

molecule: CCCC1(C(=O)c2ccc(O)c(Cl)c2)CCCNC1 (centres unmarked)
melting point: 265.6 to 266.9 °C

molecule: CCCC1(C(=O)c2ccc(Cl)c(Cl)c2)CCN1 (centres unmarked)
melting point: 252.6 to 254 °C

molecule: CCCC1(C(=O)c2cc(F)c(N)c(Cl)c2)CCNC1 (centres unmarked)
melting point: 65 to 67 °C

Problem: Read off the recorded melting point for COCC1(C(=O)c2ccc3[nH]ccc3c2)CCNC1 (centres unmarked)
Solution: 59.1 to 61 °C

Problem: Read off the recorded melting point for CCCC1(C(=O)c2ccc(Cl)c(Cl)c2)CNC1
Solution: 59 to 60 °C

Problem: Read off the recorded melting point for O=C(c1ccc2[nH]ncc2c1)C1(CC2CCCC2)CCCN1 (centres unmarked)
Solution: > 300 °C
